experiment: Pharmacokinetics in humans, MRTX1133 formulation, oral, single and multiple doses; type: in vivo; conditions: human, plasma, po, 400 mg, multiple oral doses of 400 mg BID, fasted; 6 h; mean of subjects; read-out: Plasma concentration, Mean
measure name: concentration at 6 h

Request: Data request, read-out concentration at 6 h, for C#Cc1c(F)ccc2cc(O)cc(-c3ncc4c(N5C[C@H]6CC[C@@H](C5)N6)nc(OC[C@@]56CCCN5C[C@H](F)C6)nc4c3F)c12
Result: 63.4 ng/mL

----------
test: Pharmacokinetics in humans, MRTX1133 formulation, oral, single and multiple doses; format: in vivo; settings: human, plasma, po, 400 mg, multiple oral doses of 400 mg BID with a low-fat meal; median of subjects (footnote b); read-out: Tmax, Median
measure name: Tmax (h)
# unit: h | format: bare number

Request: May I ask what Tmax has been recorded for C#Cc1c(F)ccc2cc(O)cc(-c3ncc4c(N5C[C@H]6CC[C@@H](C5)N6)nc(OC[C@@]56CCCN5C[C@H](F)C6)nc4c3F)c12 ?
Result: 1

----------
experiment: Pharmacokinetics in humans, MRTX1133 formulation, oral, single and multiple doses; type: in vivo; details: human, plasma, po, 800 mg, multiple oral doses of 800 mg BID, fasted; Median of subjects; read-out: Tmax
measure name: Tmax (h)
Please respond with the number in h and leave the unit unwritten.

Request: Look at this molecule and give its reported Tmax. C#Cc1c(F)ccc2cc(O)cc(-c3ncc4c(N5C[C@H]6CC[C@@H](C5)N6)nc(OC[C@@]56CCCN5C[C@H](F)C6)nc4c3F)c12
Result: 2

----------
assay: Pharmacokinetics in humans, MRTX1133 formulation, oral, single and multiple doses; format: in vivo; settings: human, plasma, po, 200 mg, single oral dose of 200 mg, fasted; geometric mean of subjects; read-out: Cmax, Geo Mean
measure name: Cmax (ng/mL)
Numeric only. Scale: ng/mL

Request: What value of Cmax has been reported for the following compound? C#Cc1c(F)ccc2cc(O)cc(-c3ncc4c(N5C[C@H]6CC[C@@H](C5)N6)nc(OC[C@@]56CCCN5C[C@H](F)C6)nc4c3F)c12
Result: 59.8

----------
experiment: Pharmacokinetics in humans, MRTX1133 formulation, oral, single and multiple doses; assay type: in vivo; conditions: human, plasma, po, 200 mg, single oral dose of 200 mg, fasted; 6 h; mean of subjects; read-out: Plasma concentration, Mean
measure name: concentration at 6 h (ng/mL)
Give the number; ng/mL is assumed, so skip it.

Request: Look up concentration at 6 h for this compound: C#Cc1c(F)ccc2cc(O)cc(-c3ncc4c(N5C[C@H]6CC[C@@H](C5)N6)nc(OC[C@@]56CCCN5C[C@H](F)C6)nc4c3F)c12
Result: 11.9

----------
test: Pharmacokinetics in humans, MRTX1133 formulation, oral, single and multiple doses; assay type: in vivo; conditions: human, plasma, po, 200 mg, multiple oral doses of 200 mg BID, fasted; 1 h; mean of subjects; read-out: Plasma concentration, Mean
measure name: concentration at 1 h (ng/mL)
Give the quantity in ng/mL, number only.

Request: Look up concentration at 1 h: C#Cc1c(F)ccc2cc(O)cc(-c3ncc4c(N5C[C@H]6CC[C@@H](C5)N6)nc(OC[C@@]56CCCN5C[C@H](F)C6)nc4c3F)c12
Result: 31.1
